# Tested on: Pseudomonas aeruginosa
# protocol_text: MIC and MBC, broth micro-dilution
# Assay type: cell-based
# condition_summary: Pseudomonas aeruginosa; P. aeruginosa; read-out: MBC
attribute_measured: MBC

Some compounds with known MBC results, for comparison:
compound=Nc1ccc(S(=O)(=O)Nc2ncccn2)cc1 target_or_test_system="Pseudomonas aeruginosa" observed_measurement="> 200 µg/mL"
compound="CNC(C)C1CCC(N)C(OC2C(N)CC(N)C(OC3OCC(C)(O)C(NC)C3O)C2O)O1 (stereo not shown)" target_or_test_system="Pseudomonas aeruginosa" observed_measurement="12.5 µg/mL"
compound=COc1cc(Cc2cnc(N)nc2N)cc(OC)c1OC target_or_test_system="Pseudomonas aeruginosa" observed_measurement="> 200 µg/mL"

I have this compound here, NNC(=O)c1ccncc1 , and I need its recorded MBC.
> 200 µg/mL

====

# Test system: normal human dermal fibroblasts (NHDF)
# protocol_text: MTT assay in non-malignant cells
# Assay type: cell-based
# condition_summary: 48 h, mean ± SD
Entries and their IC50 values follow.

Some molecules with known IC50 results, for comparison:
molecule=Nc1ccc(S(=O)(=O)c2ccc(N)cc2)cc1 target_or_test_system="normal human dermal fibroblasts (NHDF)" observed_measurement="> 100 µM"
molecule=Nc1ccc(S(=O)(=O)Nc2ncccn2)cc1 target_or_test_system="normal human dermal fibroblasts (NHDF)" observed_measurement="> 100 µM"
molecule=NNC(=O)c1ccncc1 target_or_test_system="normal human dermal fibroblasts (NHDF)" observed_measurement="41.2 µM"

Consider the additional molecule presented here.
I have this molecule here, CNC(C)C1CCC(N)C(OC2C(N)CC(N)C(OC3OCC(C)(O)C(NC)C3O)C2O)O1 (stereo not shown) , and I need its recorded IC50.
> 100 µM

====

# System: DU-145 (prostate cancer)
# protocol_text: MTT antiproliferative assay
# Assay type: cell-based, human
# condition_summary: DU-145, 48 h, mean ± SD
pIC50: −log10 of the molar value.
Entries and their pIC50 values follow.

compound="COc1cc(Cc2cnc(N)nc2N)cc(OC)c1OC [AB-2, trimethoprim]" observed_measurement="< 4.00"
compound="CNC(C)C1CCC(N)C(OC2C(N)CC(N)C(OC3OCC(C)(O)C(NC)C3O)C2O)O1 (centres unmarked) [AB-6, gentamicin]" observed_measurement="< 4.00"
compound="Nc1ccc(S(=O)(=O)Nc2ncccn2)cc1 [AB-4, sulfadiazine]" observed_measurement="< 4.00"
compound="Nc1ccc(S(=O)(=O)c2ccc(N)cc2)cc1 [AB-3, dapsone]" observed_measurement="< 4.00"

I have this compound here, NNC(=O)c1ccncc1 [AB-5, isoniazid] , and I need its recorded pIC50.
4.00

====

# System: Escherichia coli
# protocol_text: MIC and MBC, broth micro-dilution
# Format: cell-based
# condition_summary: Escherichia coli; E. coli, 24 h; read-out: MIC
attribute_measured: MIC (µg/mL)
Write down the numeric answer in µg/mL and omit the unit.

compound="COc1cc(Cc2cnc(N)nc2N)cc(OC)c1OC [AB-2, trimethoprim]" unit_of_measure=µg/mL observed_measurement=1.56

Consider the additional compound presented here.
I have this compound here, CNC(C)C1CCC(N)C(OC2C(N)CC(N)C(OC3OCC(C)(O)C(NC)C3O)C2O)O1 (stereo not shown) [AB-6, gentamicin] , and I need its recorded MIC.
25

====

# System: MCF-7 (human breast adenocarcinoma cells)
# protocol_text: MTT antiproliferative assay
# Format: cell-based
# condition_summary: MCF-7, 48 h, mean ± SD
pIC50: −log10 of the molar value.
attribute_measured: pIC50

compound=Nc1ccc(S(=O)(=O)Nc2ncccn2)cc1 target_or_test_system="MCF-7 (human breast adenocarcinoma cells)" observed_measurement="< 4.00"
compound=NNC(=O)c1ccncc1 target_or_test_system="MCF-7 (human breast adenocarcinoma cells)" observed_measurement="< 4.00"
compound=Nc1ccc(S(=O)(=O)c2ccc(N)cc2)cc1 target_or_test_system="MCF-7 (human breast adenocarcinoma cells)" observed_measurement="< 4.00"
compound=COc1cc(Cc2cnc(N)nc2N)cc(OC)c1OC target_or_test_system="MCF-7 (human breast adenocarcinoma cells)" observed_measurement="< 4.00"

Consider the additional compound presented here.
Param readout = pIC50; param system = MCF-7 (human breast adenocarcinoma cells); param query = CNC(C)C1CCC(N)C(OC2C(N)CC(N)C(OC3OCC(C)(O)C(NC)C3O)C2O)O1 (centres unmarked) ; response: value
< 4.00

====

# Test system: Escherichia coli
# protocol_text: MIC and MBC, broth micro-dilution
# Format: cell-based
# condition_summary: Escherichia coli; E. coli; read-out: MBC
Entries and their MBC values follow.
Write down the numeric answer in µg/mL and omit the unit.

compound=COc1cc(Cc2cnc(N)nc2N)cc(OC)c1OC target_or_test_system="Escherichia coli" observed_measurement=6.25

Consider the additional compound presented here.
I have this compound here, CNC(C)C1CCC(N)C(OC2C(N)CC(N)C(OC3OCC(C)(O)C(NC)C3O)C2O)O1 (stereo not shown) , and I need its recorded MBC.
25

====

# Test system: U251 cell line
# protocol_text: Cytotoxicity of selenous acid (MTS assay, Figure S60)
# Type: cell-based, human
# condition_summary: U251, 48 h, 1–100 µM
attribute_measured: pIC50
pIC50 here is simply -log10 of the concentration when that concentration is written in mol/L.

I have this compound here, O=[Se](O)O , and I need its recorded pIC50.
5.98

====

# System: Panc-1 (pancreatic cancer)
# protocol_text: MTT antiproliferative assay
# Format: cell-based, human
# condition_summary: Homo sapiens, PANC-1, 48 h, mean ± SD
pIC50: −log10 of the molar value.
attribute_measured: pIC50

compound_structure_string=NNC(=O)c1ccncc1 observed_measurement="< 4.00"
compound_structure_string=COc1cc(Cc2cnc(N)nc2N)cc(OC)c1OC observed_measurement="< 4.00"

I have this molecule here, Nc1ccc(S(=O)(=O)c2ccc(N)cc2)cc1 , and I need its recorded pIC50.
< 4.00
